Test system: Plasma
Assay: Anticoagulant activity in human plasma assessed as concentration required to double prothrombin time
Assay type: functional
readout label: PT (µM)
The answer is to be given in µM; state only the numeric part.

COc1ccc(-n2nc(C(F)(F)F)cc2C(=O)Cc2ccc(-c3ccccc3CN3CC[C@H](O)C3)cc2)cc1: 16
COc1ccc(-n2nc(C(F)(F)F)cc2C(=O)Cc2ccc(-c3ccccc3S(N)(=O)=O)cc2)cc1: 40
Nc1noc2ccc(-n3nc(C(F)(F)F)cc3C(=O)Cc3ccc(-c4ccccc4CN4CCCC4)cc3)cc12: 3.2
Nc1noc2ccc(-n3nc(C(F)(F)F)cc3C(=O)Cc3ccc(N4CCCCC4=O)cc3)cc12: 8.1
CN(C)Cc1nccn1-c1ccc(CC(=O)c2cc(C(F)(F)F)nn2-c2ccc3onc(N)c3c2)cc1: 2

stdin: State the recorded PT for this entry: COc1ccc(-n2nc(C(N)=O)cc2C(=O)Cc2ccc(-n3ccccc3=O)cc2F)cc1
stdout: 5.2

stdin: Now the same for Nc1noc2ccc(-n3nc(C(F)(F)F)cc3C(=O)Cc3ccc(-c4ccccc4S(N)(=O)=O)cc3F)cc12
stdout: 12

stdin: Now the same for CN(C)Cc1nccn1-c1ccc(NC(=O)c2cc(C(F)(F)F)nn2-c2ccc3onc(N)c3c2)c(F)c1 [RAZAXABAN]
stdout: 1.3
